target: progesterone receptor (PR) (Homo sapiens); assay: PR-mediated induction of transcription by R5020 in T47D K5pLuc cells (luciferase reporter and endogenous alkaline phosphatase); conditions: R5020; alkaline phosphatase and luciferase; read-out: IC50, inhibition of PR-mediated induction of gene expression
Sequence (P06401 679-933 limits assumed): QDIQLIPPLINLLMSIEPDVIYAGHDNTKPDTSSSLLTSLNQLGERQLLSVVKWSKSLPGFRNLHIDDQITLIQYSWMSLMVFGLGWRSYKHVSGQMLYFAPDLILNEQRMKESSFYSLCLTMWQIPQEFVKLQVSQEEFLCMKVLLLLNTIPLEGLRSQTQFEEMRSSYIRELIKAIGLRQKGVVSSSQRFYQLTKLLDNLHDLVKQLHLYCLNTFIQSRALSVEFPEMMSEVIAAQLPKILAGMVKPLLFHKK
pIC50: −log10 of the molar value.
measurement_label: pIC50

Q: Please give the measured pIC50 for this molecule: O=c1cc(-c2ccc(O)c(O)c2)oc2cc(O)cc(O)c12 [5,7,3′,4′-tetrahydroxyflavone]
A: 5.70 to 6.00

---

molecular target: glucocorticoid receptor (GR) (Rattus norvegicus, UniProt P06536); construct: host or cells: T47D (A1-2); test: GR-mediated induction of transcription by dexamethasone in T47D (A1-2) cells (luciferase reporter and endogenous alkaline phosphatase); format: cell-based, human; details: T47D, 4 µM; AP (alkaline phosphatase); dexamethasone 1.0 nM; read-out: % Inhibition of GR Induction
Sequence (P06536 whole entry): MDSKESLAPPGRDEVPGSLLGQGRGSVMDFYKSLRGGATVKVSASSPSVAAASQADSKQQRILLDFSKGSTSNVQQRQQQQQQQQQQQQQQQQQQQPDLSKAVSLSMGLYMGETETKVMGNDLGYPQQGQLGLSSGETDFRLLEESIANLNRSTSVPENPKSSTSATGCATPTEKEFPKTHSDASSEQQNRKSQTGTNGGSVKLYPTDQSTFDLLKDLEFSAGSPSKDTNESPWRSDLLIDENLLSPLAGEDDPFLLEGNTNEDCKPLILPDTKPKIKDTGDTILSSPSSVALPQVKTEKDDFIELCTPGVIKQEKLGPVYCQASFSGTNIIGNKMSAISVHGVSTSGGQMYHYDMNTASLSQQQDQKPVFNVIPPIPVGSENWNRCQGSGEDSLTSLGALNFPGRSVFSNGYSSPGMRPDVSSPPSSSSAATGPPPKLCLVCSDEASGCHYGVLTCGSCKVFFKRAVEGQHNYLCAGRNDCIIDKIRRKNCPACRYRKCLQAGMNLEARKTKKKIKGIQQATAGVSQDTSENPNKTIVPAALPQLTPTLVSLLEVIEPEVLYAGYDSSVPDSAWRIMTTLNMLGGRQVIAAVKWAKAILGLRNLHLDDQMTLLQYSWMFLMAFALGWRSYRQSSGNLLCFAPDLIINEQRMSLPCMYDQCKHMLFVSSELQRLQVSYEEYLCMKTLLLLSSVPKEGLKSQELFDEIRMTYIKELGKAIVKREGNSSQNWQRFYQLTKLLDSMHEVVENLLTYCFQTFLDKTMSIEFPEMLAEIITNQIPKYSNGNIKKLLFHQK
measurement_label: inhibition at 4 µM (%)
Numbers only, in %.

Solved cases below.
Q: Please give the measured inhibition at 4 µM for this compound: O=c1cc(-c2ccc(O)cc2)oc2cccc(O)c12 [5,4′-dihydroxyflavone]
A: 34

Q: Same thing, different compound: O=c1cc(-c2ccc(O)cc2)oc2ccccc12 [4′-hydroxyflavone]
A: 49

Q: Same thing, different compound: COc1ccc([C@@H]2CC(=O)c3c(O)cc(O)cc3O2)cc1O
A: 1

Q: Same thing, different compound: O=c1c(-c2ccc(O)cc2)coc2cc(O)cc(O)c12 [5,7,4′-trihydroxyisoflavone]
A: 22

Q: Same thing, different compound: O=c1cc(-c2ccc(O)c(O)c2)oc2cc(O)cc(O)c12 [5,7,3′,4′-tetrahydroxyflavone]
A: 33

Please give inhibition at 4 µM, item by item, for the list that follows.
1. O=c1cc(-c2ccccc2)oc2cc(O)cc(O)c12 [5,7-dihydroxyflavone]
2. O=c1cc(-c2ccc(O)cc2)oc2cc(O)cc(O)c12 [5,7,4′-trihydroxyflavone]
3. O=c1cc(-c2ccc(O)cc2)oc2ccc(O)cc12 [6,4′-dihydroxyflavone]
4. O=c1cc(-c2ccccc2)oc2ccccc12
5. O=c1cc(-c2ccc(O)c(O)c2)oc2cc(O)ccc12 [7,3′,4′-trihydroxyflavone]
6. O=C1CC(c2ccc(O)cc2)Oc2cc(O)cc(O)c21 (stereo not shown) [5,7,4′-trihydroxyflavanone]
7. O=c1cc(-c2ccccc2)oc2cccc(O)c12 [5-hydroxyflavone]

A:
1: 22; 2: -19; 3: 26; 4: 13; 5: 21; 6: 8; 7: 38

Q: Please give the measured inhibition at 4 µM for this compound: O=c1cc(-c2ccc(O)c(O)c2)oc2ccccc12 [3′,4′-dihydroxyflavone]
A: -15
